Cited source: ChEMBL document CHEMBL5724914

experiment: The drug is tested on Z-028 corresponding to mouse gut metagenome with ENA study accession number: PRJEB37062 and ENA sample accession number: ERS12561827 for biotransformation under anaerobic condition. The drug concentrations were measured over 9 timepoints collected between 0 and 24 hours of incubation by liquid-chromatography-coupled mass spectrometry (LC–MS); details: 2 µM; further: call rule not given here
RESULT TYPE: Bacterial Biotransformation

Consider the following illustrative entries.
COMPOUND: CN1CCN(C(=O)O[C@H]2c3nccnc3C(=O)N2c2ccc(Cl)cn2)CC1
Bacterial Biotransformation: Compound NOT metabolized
//
COMPOUND: CCN(CC)C(=O)/C(C#N)=C/c1cc(O)c(O)c([N+](=O)[O-])c1
Bacterial Biotransformation: Compound metabolized
//
COMPOUND: CC(=O)OCC(=O)[C@@]12N=C(C)O[C@@H]1C[C@H]1[C@@H]3CCC4=CC(=O)C=C[C@]4(C)[C@H]3[C@@H](O)C[C@@]12C
Bacterial Biotransformation: Compound metabolized
//
COMPOUND: NS(=O)(=O)c1cc2c(cc1Cl)N=C(CSCc1ccccc1)NS2(=O)=O [BENZTHIAZIDE]
Bacterial Biotransformation: Compound NOT metabolized
//
COMPOUND: Cc1ccc(S(=O)(=O)NC(=O)NN2CC3CCCC3C2)cc1 (configuration not stated) [GLICLAZIDE]
Bacterial Biotransformation: Compound metabolized
//
COMPOUND: CCc1nn(CCCN2CCN(c3cccc(Cl)c3)CC2)c(=O)n1CCOc1ccccc1
Bacterial Biotransformation: Compound NOT metabolized
//
COMPOUND: CC(C)(C#N)c1cc(Cn2cncn2)cc(C(C)(C)C#N)c1
Bacterial Biotransformation: Compound NOT metabolized
//
COMPOUND: COc1cc2nc(N(C)CCCNC(=O)C3CCCO3)nc(N)c2cc1OC (configuration not stated)
Bacterial Biotransformation: Compound NOT metabolized

Hey, quick one: what's Bacterial Biotransformation for each of these?
1. CCCCc1nc(Cl)c(CO)n1Cc1ccc(-c2ccccc2-c2nn[nH]n2)cc1
2. Nc1ccc(/N=N/c2ccccc2)c(N)n1
3. COc1ccc(CCN(C)CCCC(C#N)(c2ccc(OC)c(OC)c2)C(C)C)cc1OC (configuration not stated)
4. C=CCc1ccccc1OCC(O)CNC(C)C (configuration not stated)
5. O=c1[nH]c2ccccc2n1C1CCN(CCCC(c2ccc(F)cc2)c2ccc(F)cc2)CC1 [PIMOZIDE]
6. C[C@@H]1C[C@H]2[C@@H]3CCC4=CC(=O)C=C[C@]4(C)[C@@]3(F)[C@@H](O)C[C@]2(C)[C@@]1(O)C(=O)CO
7. CCCc1nn(C)c2c(=O)[nH]c(-c3cc(S(=O)(=O)N4CCN(C)CC4)ccc3OCC)nc12.O=C(O)CC(O)(CC(=O)O)C(=O)O [SILDENAFIL CITRATE]

["Compound NOT metabolized", "Compound metabolized", "Compound metabolized", "Compound NOT metabolized", "Compound NOT metabolized", "Compound NOT metabolized", "Compound NOT metabolized"]

Hey, quick one: what's Bacterial Biotransformation for each of these?
1. Cc1ccc(/C(=C\CN2CCCC2)c2ccccn2)cc1
2. CC(=O)CC(c1ccccc1)c1c(O)c2ccccc2oc1=O (configuration not stated)

1. Compound NOT metabolized
2. Compound metabolized

* * *

assay: The drug is tested on WLS-069 corresponding to human gut metagenome with ENA study accession number: PRJEB37062 and ENA sample accession number: ERS12561748 for biotransformation under anaerobic condition. The drug concentrations were measured over 9 timepoints collected between 0 and 24 hours of incubation by liquid-chromatography-coupled mass spectrometry (LC–MS); details: 2 µM
RESULT TYPE: Bacterial Biotransformation

Consider the following illustrative entries.
MOLECULE: CNC(=C[N+](=O)[O-])NCCSCc1csc(CN(C)C)n1 [NIZATIDINE]
Bacterial Biotransformation: Compound metabolized

MOLECULE: CC(=O)OCC(=O)[C@@]12N=C(C)O[C@@H]1C[C@H]1[C@@H]3CCC4=CC(=O)C=C[C@]4(C)[C@H]3[C@@H](O)C[C@@]12C [DEFLAZACORT]
Bacterial Biotransformation: Compound metabolized

MOLECULE: CCCc1nn(C)c2c(=O)[nH]c(-c3cc(S(=O)(=O)N4CCN(C)CC4)ccc3OCC)nc12.O=C(O)CC(O)(CC(=O)O)C(=O)O [SILDENAFIL CITRATE]
Bacterial Biotransformation: Compound NOT metabolized

MOLECULE: CC(C)(C(=O)O)c1ccc(C(O)CCCN2CCC(C(O)(c3ccccc3)c3ccccc3)CC2)cc1 (stereo not given) [FEXOFENADINE]
Bacterial Biotransformation: Compound NOT metabolized

MOLECULE: CC(C)N(CCC(C(N)=O)(c1ccccc1)c1ccccn1)C(C)C.O=P(O)(O)O (stereo not given) [DISOPYRAMIDE PHOSPHATE]
Bacterial Biotransformation: Compound NOT metabolized

Hey, quick one: what's Bacterial Biotransformation for each of these?
1. CN/C(=N/CCSCc1nc[nH]c1C)NC#N [CIMETIDINE]
2. CC(CN1c2ccccc2Sc2ccccc21)N(C)C (stereo not given) [PROMETHAZINE]
3. COc1ccc2c(c1OC)C(=O)O[C@@H]2[C@H]1c2c(cc3c(c2OC)OCO3)CCN1C [NOSCAPINE]
4. Cc1nc2n(c(=O)c1CCN1CCC(c3noc4cc(F)ccc34)CC1)CCCC2O (stereo not given) [PALIPERIDONE]
5. CC(C)c1nc(CN(C)C(=O)N[C@H](C(=O)N[C@@H](Cc2ccccc2)C[C@H](O)[C@H](Cc2ccccc2)NC(=O)OCc2cncs2)C(C)C)cs1 [RITONAVIR]
6. CN1CCc2c(c3ccccc3n2Cc2ccccc2)C1.CN1CCc2c(c3ccccc3n2Cc2ccccc2)C1.O=S(=O)(O)c1cccc2c(S(=O)(=O)O)cccc12
7. CCC1(c2ccc(N)cc2)CCC(=O)NC1=O (stereo not given) [AMINOGLUTETHIMIDE]
8. CC(C)NCC(O)COc1ccc(CCOCC2CC2)cc1 (stereo not given) [BETAXOLOL]

["Compound metabolized", "Compound metabolized", "Compound metabolized", "Compound metabolized", "Compound metabolized", "Compound NOT metabolized", "Compound NOT metabolized", "Compound NOT metabolized"]

Hey, quick one: what's Bacterial Biotransformation for each of these?
1. O=C(NCc1ccccc1)OCCO [BURAMATE]
2. COC(=O)Nc1nc2ccc(C(=O)c3ccccc3)cc2[nH]1 [MEBENDAZOLE]
3. COc1cc2c(c(OC)c1OC)-c1ccc(OC)c(=O)cc1[C@@H](NC(C)=O)CC2 [COLCHICINE]
4. COc1ccc2[nH]c([S+]([O-])Cc3ncc(C)c(OC)c3C)nc2n1 (stereo not given) [TENATOPRAZOLE]

1: Compound NOT metabolized; 2: Compound metabolized; 3: Compound metabolized; 4: Compound metabolized

Hey, quick one: what's Bacterial Biotransformation for each of these?
1. CN(C)CCc1c[nH]c2ccc(Cn3cncn3)cc12.O=C(O)c1ccccc1 [RIZATRIPTAN BENZOATE]
2. CCOC(=O)[C@H](CCc1ccccc1)N[C@H]1CCc2ccccc2N(CC(=O)O)C1=O [BENAZEPRIL]
3. CN1C(=O)CC(C)(c2ccccc2)C1=O (stereo not given) [METHSUXIMIDE]
4. CN1CCN(C2=Nc3cc(Cl)ccc3Nc3ccccc32)CC1 [CLOZAPINE]

1: Compound NOT metabolized; 2: Compound metabolized; 3: Compound NOT metabolized; 4: Compound NOT metabolized

Hey, quick one: what's Bacterial Biotransformation for each of these?
1. CN1CC(=O)N2[C@H](c3ccc4c(c3)OCO4)c3[nH]c4ccccc4c3C[C@@H]2C1=O
2. O=P(O)(O)O.c1ccc(CN(CC2=NCCN2)c2ccccc2)cc1 [ANTAZOLINE PHOSPHATE]
3. Cc1nc(-c2ccc(OCC(C)C)c(C#N)c2)sc1C(=O)O [FEBUXOSTAT]

1. Compound metabolized
2. Compound NOT metabolized
3. Compound metabolized

Hey, quick one: what's Bacterial Biotransformation for each of these?
1. OCCN1CCN(CCCN2c3ccccc3Sc3ccc(C(F)(F)F)cc32)CC1 [FLUPHENAZINE]
2. CCN(CC)C(C)CN1c2ccccc2Sc2ccccc21 (stereo not given) [ETHOPROPAZINE]
3. CN(C)CC(c1ccc(O)cc1)C1(O)CCCCC1.O=C(O)CCC(=O)O (stereo not given) [DESVENLAFAXINE SUCCINATE]
4. Cc1ccc(S(=O)(=O)NC(=O)NN2CCCCCC2)cc1 [TOLAZAMIDE]
5. COCCc1ccc(OCC(O)CNC(C)C)cc1.COCCc1ccc(OCC(O)CNC(C)C)cc1.O=C(O)C(O)C(O)C(=O)O (stereo not given) [METOPROLOL TARTRATE]

1: Compound metabolized; 2: Compound metabolized; 3: Compound NOT metabolized; 4: Compound metabolized; 5: Compound NOT metabolized

Hey, quick one: what's Bacterial Biotransformation for each of these?
1. CS(=O)(=O)O.OC(CCN1CCCCC1)(c1ccccc1)c1ccccc1 [PRIDINOL METHANESULFONATE]
2. CCCC(=O)Nc1ccc(OCC(O)CNC(C)C)c(C(C)=O)c1 (stereo not given) [ACEBUTOLOL]

1: Compound NOT metabolized; 2: Compound metabolized

Hey, quick one: what's Bacterial Biotransformation for each of these?
1. COc1ccc2c3c1O[C@H]1C[C@@H](O)C=C[C@@]31CCN(C)C2 [GALANTAMINE]
2. COc1cc2nc(N(C)CCCNC(=O)C3CCCO3)nc(N)c2cc1OC (stereo not given) [ALFUZOSIN]

["Compound NOT metabolized", "Compound metabolized"]

Hey, quick one: what's Bacterial Biotransformation for each of these?
1. CC(C(=O)O)c1ccc2c(c1)Cc1cccnc1O2 (stereo not given) [PRANOPROFEN]
2. CN1CCOC(c2ccccc2)c2ccccc2C1 (stereo not given) [NEFOPAM]

1: Compound metabolized; 2: Compound NOT metabolized
